# protocol details: Urinary excretion of phenolic metabolites after intake of the GCPE nutraceutical
# test conditions: week 0, interval 3–6 h
measured quantity: Amount excreted in urine, 3-6 h (µmol)

compound="O=C(CCc1ccc(O)c(O)c1)OC1CC(O)(C(=O)O)CC(O)C1O (stereo not drawn) [5-Dihydrocaffeoylquinic acid]" val=0.005
compound=COc1cc(CCC(=O)O)ccc1O val=0.007
compound="COc1cc(CCC(=O)OC2CC(O)(C(=O)O)CC(O)C2O)ccc1O (stereo not drawn) [5-Dihydroferuloylquinic acid]" val=0.023
compound="COc1cc(CCC(=O)O)ccc1O[C@@H]1O[C@H](C(=O)O)[C@@H](O)[C@H](O)[C@H]1O [DHFA-4′-glucuronide]" val=0.16
compound="O=C(O)c1cccc(O)c1 [3-Hydroxybenzoic acid]" val=0.05
compound="O=C(O)CCc1ccc(OS(=O)(=O)O)cc1 [DHCoA-4′-sulfate, 3-(Phenyl)propanoic acid-4′-sulfate]" val=0.7

###

Listed compounds paired with reported Amount of fecal metabolite excreted at 24 h
# protocol details: Fecal excretion of phenolic metabolites after intake of the GCPE nutraceutical
# test conditions: feces; 24 h; week 0
measured quantity: Amount of fecal metabolite excreted at 24 h (µmol/g)

compound="O=C(O)/C=C/c1ccc(O)cc1 [CoA, 4′-Hydroxycinnamic acid]" endpoint_unit=µmol/g val=0.002
compound="O=C(O)Cc1cccc(O)c1 [3′-Hydroxyphenylacetic acid]" endpoint_unit=µmol/g val=0.21
compound="COc1cc(/C=C/C(=O)O[C@@H]2C[C@@](O)(C(=O)O)C[C@@H](O)[C@@H]2O)ccc1O [3-Feruloylquinic acid]" endpoint_unit=µmol/g val=0.003

###

# protocol details: Plasma pharmacokinetics of phenolic metabolites after intake of the GCPE nutraceutical (LC-MS-QToF)
# test conditions: human, oral, 300 mg, Cmax, week 0, GCPE nutraceutical with 300 mg hydroxycinnamic acids, mean ± SEM, n = 9
Listed compounds paired with reported Cmax
measured quantity: Cmax (nM)

compound="COc1ccc(/C=C/C(=O)O)cc1O [iFA, 3′-Hydroxy-4′-methoxycinnamic acid]" endpoint_unit=nM val=23
compound="O=C(O)c1cccc(O)c1 [3-Hydroxybenzoic acid]" endpoint_unit=nM val=80
compound="O=C(O)CCc1ccc(O)c(O)c1 [DHCA, 3-(3′,4′-Dihydroxyphenyl)propanoic acid]" endpoint_unit=nM val=220

###

Listed compounds paired with reported Amount excreted in urine, 11-24 h
# protocol details: Urinary excretion of phenolic metabolites after intake of the GCPE nutraceutical
# test conditions: week 8, interval 11–24 h
measured quantity: Amount excreted in urine, 11-24 h (µmol)

compound="O=C(O)CCc1ccc(O)cc1 [DHCoA, 3-(4′-Hydroxyphenyl)propanoic acid]" measured_quantity="Amount excreted in urine, 11-24 h" val=1
compound=COc1ccc(CCC(=O)O)cc1O measured_quantity="Amount excreted in urine, 11-24 h" val=1
compound="O=C(O)/C=C/c1ccc(O)c(OS(=O)(=O)O)c1 [CA-3′-sulfate, 4′Hydroxycinnamic acid-3′-sulfate]" measured_quantity="Amount excreted in urine, 11-24 h" val=1
compound="O=C(O)CCc1ccc(O[C@@H]2O[C@H](C(=O)O)[C@@H](O)[C@H](O)[C@H]2O)cc1 [DHCoA-4′-glucuronide, 3-(Phenyl)propanoic acid-4′-glucuronide]" measured_quantity="Amount excreted in urine, 11-24 h" val=1
compound="O=C(O)CCc1ccc(OS(=O)(=O)O)cc1 [DHCoA-4′-sulfate, 3-(Phenyl)propanoic acid-4′-sulfate]" measured_quantity="Amount excreted in urine, 11-24 h" val=7
compound=COc1ccc(/C=C/C(=O)NCC(=O)O)cc1O measured_quantity="Amount excreted in urine, 11-24 h" val=0.17
compound="O=C(CCc1ccc(O)c(O)c1)OC1CC(O)(C(=O)O)CC(O)C1O (centres unmarked) [5-Dihydrocaffeoylquinic acid]" measured_quantity="Amount excreted in urine, 11-24 h" val=0.015
compound="COc1cc(CCC(=O)OC2CC(O)(C(=O)O)CC(O)C2O)ccc1O (centres unmarked) [3-Dihydroferuloylquinic acid]" measured_quantity="Amount excreted in urine, 11-24 h" val=0.14
compound="COc1cc(CCC(=O)O)ccc1O[C@@H]1O[C@H](C(=O)O)[C@@H](O)[C@H](O)[C@H]1O [DHFA-4′-glucuronide]" measured_quantity="Amount excreted in urine, 11-24 h" val=1
compound="O=C(CCc1ccc(O)c(O)c1)OC1C(O)CC(O)(C(=O)O)CC1O (centres unmarked) [4-Dihydrocaffeoylquinic acid]" measured_quantity="Amount excreted in urine, 11-24 h" val=0.02
compound=COc1cc(/C=C/C(=O)NCC(=O)O)ccc1O measured_quantity="Amount excreted in urine, 11-24 h" val=3
compound=COc1cc(CCC(=O)O)ccc1O measured_quantity="Amount excreted in urine, 11-24 h" val=0.07
compound="COc1cc(/C=C/C(=O)O[C@@H]2C[C@@](O)(C(=O)O)C[C@@H](O)[C@@H]2O)ccc1O [5-Feruloylquinic acid]" measured_quantity="Amount excreted in urine, 11-24 h" val=0.08
compound="COc1cc(C=CC(=O)O)ccc1OC1OC(C(=O)O)C(O)C(O)C1O (centres unmarked) [FA-4′-glucuronide, 3′-Methoxycinnamic acid-4′-glucuronide]" measured_quantity="Amount excreted in urine, 11-24 h" val=1.3
compound="COc1cc(C=CC(=O)O)ccc1OS(=O)(=O)O [FA-4′-sulfate, 3′-Methoxycinnamic acid-4′-sulfate]" measured_quantity="Amount excreted in urine, 11-24 h" val=11
compound="O=C(O)Cc1cccc(O)c1 [3′-Hydroxyphenylacetic acid]" measured_quantity="Amount excreted in urine, 11-24 h" val=1.8
compound="O=C(O)CCc1ccc(OS(=O)(=O)O)c(O)c1 [DHCA-4′-sulfate]" measured_quantity="Amount excreted in urine, 11-24 h" val=1.7
compound="COc1cc(/C=C/C(=O)OC2[C@H](O)CC(O)(C(=O)O)C[C@H]2O)ccc1O (some centres unmarked)" measured_quantity="Amount excreted in urine, 11-24 h" val=0.02
compound="O=C(O)CCc1ccc(O)c(OS(=O)(=O)O)c1 [DHCA-3′-sulfate]" measured_quantity="Amount excreted in urine, 11-24 h" val=2
compound="COc1ccc(CCC(=O)O)cc1OC [Dihydrodimethoxycinnamic acid, 3-(3′,4′-Dimethoxyphenyl)propanoic acid]" measured_quantity="Amount excreted in urine, 11-24 h" val=0.25
compound="COc1ccc(C=CC(=O)O)cc1O[C@@H]1O[C@H](C(=O)O)[C@@H](O)[C@H](O)[C@H]1O [iFA-3′-glucuronide, 4′-Methoxycinnamic acid-3′-glucuronide]" measured_quantity="Amount excreted in urine, 11-24 h" val=1.1
compound="COc1cc(CCC(=O)O)ccc1OS(=O)(=O)O [DHFA-4′-sulfate]" measured_quantity="Amount excreted in urine, 11-24 h" val=2.6
compound="O=C(CCc1ccc(O)c(O)c1)OC1CC(O)(C(=O)O)CC(O)C1O (centres unmarked) [3-Dihydrocaffeoylquinic acid]" measured_quantity="Amount excreted in urine, 11-24 h" val=0.15
